Cited source for all entries: ChEMBL document CHEMBL3880382

Exercise: state measured Vmax/Km for each of the molecules provided.
assayedTarget: Thyrotropin releasing hormone degrading enzyme (Sus scrofa) (UniProt A0A287AP33)
Sequence (A0A287AP33 as listed by the source): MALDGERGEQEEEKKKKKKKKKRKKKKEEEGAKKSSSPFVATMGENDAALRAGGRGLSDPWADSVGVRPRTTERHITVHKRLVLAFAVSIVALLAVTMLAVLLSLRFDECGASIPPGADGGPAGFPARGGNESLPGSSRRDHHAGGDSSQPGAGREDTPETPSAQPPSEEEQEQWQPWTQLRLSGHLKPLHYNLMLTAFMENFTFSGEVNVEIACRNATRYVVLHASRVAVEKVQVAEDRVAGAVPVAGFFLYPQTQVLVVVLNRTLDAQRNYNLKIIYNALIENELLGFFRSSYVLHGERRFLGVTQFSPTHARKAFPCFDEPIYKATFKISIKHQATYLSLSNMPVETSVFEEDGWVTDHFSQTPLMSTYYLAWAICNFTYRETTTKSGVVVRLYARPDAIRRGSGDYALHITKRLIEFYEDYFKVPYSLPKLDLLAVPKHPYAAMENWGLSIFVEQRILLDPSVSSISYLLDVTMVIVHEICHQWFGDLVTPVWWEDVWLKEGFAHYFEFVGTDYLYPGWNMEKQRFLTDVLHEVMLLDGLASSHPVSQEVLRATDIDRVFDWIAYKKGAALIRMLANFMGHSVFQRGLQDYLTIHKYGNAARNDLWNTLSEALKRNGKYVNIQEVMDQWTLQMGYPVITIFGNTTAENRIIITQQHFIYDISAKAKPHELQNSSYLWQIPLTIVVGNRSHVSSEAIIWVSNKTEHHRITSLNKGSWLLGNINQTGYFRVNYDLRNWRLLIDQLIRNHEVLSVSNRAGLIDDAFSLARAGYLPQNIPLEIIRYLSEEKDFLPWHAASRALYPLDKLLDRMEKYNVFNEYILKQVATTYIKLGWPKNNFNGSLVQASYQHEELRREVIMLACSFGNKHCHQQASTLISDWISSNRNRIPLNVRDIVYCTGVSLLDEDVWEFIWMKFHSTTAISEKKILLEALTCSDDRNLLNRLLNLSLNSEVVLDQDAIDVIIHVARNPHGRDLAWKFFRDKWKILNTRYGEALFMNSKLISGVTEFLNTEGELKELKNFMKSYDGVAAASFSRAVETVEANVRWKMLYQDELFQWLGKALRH
protocolDetails: Substrate activity at pig brain TRH-DE assessed as Vmax to Km ratio
Non-standard residues stand in square brackets, D forms with d. Residues, ends and D or L forms follow the SMILES beside them. 2Thi = N[C@@H](Cc1cccs1)C(=O)O; pGlu = O=C1CC[C@@H](C(=O)O)N1
Number only, in U/mg/µM; omit the unit.

Query: Vmax/Km; subject: NC(=O)[C@@H]1CCCN1C(=O)[C@H](Cc1ccccc1)NC(=O)[C@@H]1CCC(=O)N1 ([pGlu]-Phe-Pro-NH2)
0.03

Query: Vmax/Km; subject: NC(=O)[C@@H]1CCCN1C(=O)[C@H](Cc1ccc(O)cc1)NC(=O)[C@@H]1CCC(=O)N1 ([pGlu]-Tyr-Pro-NH2)
0.05

Query: Vmax/Km; subject: `NC(=O)[C@@H]1CCCN1C(=O)[C@H](Cc1c[nH]cn1)NC(=O)[C@@H]1CCC(=O)N1`
0.08

Query: Vmax/Km; subject: `Cc1cc(=O)oc2cc(NC(=O)[C@@H]3CCCN3C(=O)[C@H](Cc3cnc[nH]3)NC(=O)[C@@H]3CCC(=O)N3)ccc12`
0.04

Query: Vmax/Km; subject: `O=C1CC[C@@H](C(=O)N[C@@H](Cc2cnc[nH]2)C(=O)N2CCC[C@H]2C(=O)O)N1`
0.01

Query: Vmax/Km; subject: NC(=O)[C@@H]1CCCN1C(=O)[C@H](Cc1cccs1)NC(=O)[C@@H]1CCC(=O)N1 ([pGlu]-[2Thi]-Pro-NH2)
0.06

====

Exercise: state measured Activity for each of the molecules provided.
assayedTarget: Thyrotropin releasing hormone degrading enzyme (Sus scrofa)
protocolDetails: Substrate activity at pig brain TRH-DE assessed as rate of hydrolysis at 1 mM incubated for 18 hrs by HPLC analysis
Non-standard residues stand in square brackets, D forms with d. Residues, ends and D or L forms follow the SMILES beside them. hPhe = N[C@@H](CCc1ccccc1)C(=O)O; 2Thi = N[C@@H](Cc1cccs1)C(=O)O; pGlu = O=C1CC[C@@H](C(=O)O)N1; Nva = CCC[C@H](N)C(=O)O
Number only, in U/mg; omit the unit.

Request - read-out Activity | tested on Thyrotropin releasing hormone degrading enzyme (Sus scrofa) | molecule N=C(N)NCCC[C@H](NC(=O)[C@@H]1CCC(=O)N1)C(=O)N1CCC[C@H]1C(N)=O ([pGlu]-Arg-Pro-NH2)
0.41

Request - read-out Activity | tested on Thyrotropin releasing hormone degrading enzyme (Sus scrofa) | molecule NC(=O)[C@@H]1CCCN1C(=O)[C@H](CO)NC(=O)[C@@H]1CCC(=O)N1 ([pGlu]-Ser-Pro-NH2)
0.05

Request - read-out Activity | tested on Thyrotropin releasing hormone degrading enzyme (Sus scrofa) | molecule CC(C)C[C@H](NC(=O)[C@@H]1CCC(=O)N1)C(=O)N1CCC[C@H]1C(N)=O ([pGlu]-Leu-Pro-NH2)
0.14

Request - read-out Activity | tested on Thyrotropin releasing hormone degrading enzyme (Sus scrofa) | molecule CC[C@H](C)[C@H](NC(=O)[C@@H]1CCC(=O)N1)C(=O)N1CCC[C@H]1C(N)=O ([pGlu]-Ile-Pro-NH2)
0.06

Request - read-out Activity | tested on Thyrotropin releasing hormone degrading enzyme (Sus scrofa) | molecule NCCCC[C@H](NC(=O)[C@@H]1CCC(=O)N1)C(=O)N1CCC[C@H]1C(N)=O ([pGlu]-Lys-Pro-NH2)
0.46

Request - read-out Activity | tested on Thyrotropin releasing hormone degrading enzyme (Sus scrofa) | molecule NC(=O)[C@@H]1CCCN1C(=O)[C@H](CCc1ccccc1)NC(=O)[C@@H]1CCC(=O)N1 ([pGlu]-[hPhe]-Pro-NH2)
0.05

Request - read-out Activity | tested on Thyrotropin releasing hormone degrading enzyme (Sus scrofa) | molecule CCC[C@H](NC(=O)[C@@H]1CCC(=O)N1)C(=O)N1CCC[C@H]1C(N)=O ([pGlu]-[Nva]-Pro-NH2)
0.04

Request - read-out Activity | tested on Thyrotropin releasing hormone degrading enzyme (Sus scrofa) | molecule C[C@@H](O)[C@H](NC(=O)[C@@H]1CCC(=O)N1)C(=O)N1CCC[C@H]1C(N)=O ([pGlu]-Thr-Pro-NH2)
0.14

Request - read-out Activity | tested on Thyrotropin releasing hormone degrading enzyme (Sus scrofa) | molecule NC(=O)[C@@H]1CCCN1C(=O)[C@H](Cc1ccc(O)cc1)NC(=O)[C@@H]1CCC(=O)N1 ([pGlu]-Tyr-Pro-NH2)
0.66

Request - read-out Activity | tested on Thyrotropin releasing hormone degrading enzyme (Sus scrofa) | molecule CC(C)[C@H](NC(=O)[C@@H]1CCC(=O)N1)C(=O)N1CCC[C@H]1C(N)=O ([pGlu]-Val-Pro-NH2)
0.05

Request - read-out Activity | tested on Thyrotropin releasing hormone degrading enzyme (Sus scrofa) | molecule NC(=O)[C@@H]1CCCN1C(=O)[C@H](Cc1cccs1)NC(=O)[C@@H]1CCC(=O)N1 ([pGlu]-[2Thi]-Pro-NH2)
2.12

Request - read-out Activity | tested on Thyrotropin releasing hormone degrading enzyme (Sus scrofa) | molecule NC(=O)[C@@H]1CCCN1C(=O)[C@H](Cc1ccccc1)NC(=O)[C@@H]1CCC(=O)N1 ([pGlu]-Phe-Pro-NH2)
1.56

Request - read-out Activity | tested on Thyrotropin releasing hormone degrading enzyme (Sus scrofa) | molecule `NC(=O)[C@@H]1CCCN1C(=O)[C@H](Cc1c[nH]cn1)NC(=O)[C@@H]1CCC(=O)N1`
2.54

Request - read-out Activity | tested on Thyrotropin releasing hormone degrading enzyme (Sus scrofa) | molecule `O=C1CC[C@@H](C(=O)N[C@@H](Cc2cnc[nH]2)C(=O)N2CCC[C@H]2C(=O)O)N1`
3.38

Request - read-out Activity | tested on Thyrotropin releasing hormone degrading enzyme (Sus scrofa) | molecule CSCC[C@H](NC(=O)[C@@H]1CCC(=O)N1)C(=O)N1CCC[C@H]1C(N)=O ([pGlu]-Met-Pro-NH2)
0.21

Request - read-out Activity | tested on Thyrotropin releasing hormone degrading enzyme (Sus scrofa) | molecule C[C@H](NC(=O)[C@@H]1CCC(=O)N1)C(=O)N1CCC[C@H]1C(N)=O ([pGlu]-Ala-Pro-NH2)
0.02
